Measured polymerase ribozyme fitness (log ratio) by item
B1: TPR t1 (parent)
chain: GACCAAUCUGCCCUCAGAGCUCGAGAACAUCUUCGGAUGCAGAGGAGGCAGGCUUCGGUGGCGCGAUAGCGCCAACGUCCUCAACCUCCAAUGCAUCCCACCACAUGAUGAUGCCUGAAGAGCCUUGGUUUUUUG

# Variants of: B1
# protocol_notes: polymerase ribozyme fitness, log enrichment relative to wild type (log ratio); higher = more active; in vitro selection for triplet polymerase activity
recorded_metric: polymerase ribozyme fitness (log ratio)

mutation_name	recorded_metric	quantitative_result
U9G A37C C40U C72U C123A	polymerase ribozyme fitness (log ratio)	-0.161
A46U C72U U96A G120A	polymerase ribozyme fitness (log ratio)	-1.15
C123G U131A	polymerase ribozyme fitness (log ratio)	0.367
G35C U81A U109A C114A C123G	polymerase ribozyme fitness (log ratio)	-5.16
U14A C49G G61C A66U	polymerase ribozyme fitness (log ratio)	-5.01
G77U C82U G107A U112C	polymerase ribozyme fitness (log ratio)	-5.86
A5U C11U G63C C80A A105C G113U	polymerase ribozyme fitness (log ratio)	-5.39
G44U C98U	polymerase ribozyme fitness (log ratio)	-2.19
C12A U32C U96A G122C C123G U131A	polymerase ribozyme fitness (log ratio)	-0.725
A5U C11G A29G G63A U87G	polymerase ribozyme fitness (log ratio)	-1.98
C62A C82U A121U U125A	polymerase ribozyme fitness (log ratio)	1.19
A27U C49G U54C	polymerase ribozyme fitness (log ratio)	-3.58
G19U U54G C56U C123G	polymerase ribozyme fitness (log ratio)	-6.86
A16U C56U U87A A103U U112A	polymerase ribozyme fitness (log ratio)	-4.76
G42C C94A	polymerase ribozyme fitness (log ratio)	-2.23
G52C A95G G120C U125A	polymerase ribozyme fitness (log ratio)	-0.335
U9G C22U U54G C104U	polymerase ribozyme fitness (log ratio)	-4.59
C34A U55G G77A	polymerase ribozyme fitness (log ratio)	-4.67
C3G G60U U87A	polymerase ribozyme fitness (log ratio)	-2.32
C8G C13G A37C G52C C86U	polymerase ribozyme fitness (log ratio)	-2.49
C4A U9G	polymerase ribozyme fitness (log ratio)	-0.689
A41U A90C C115G	polymerase ribozyme fitness (log ratio)	-4.39
A46U G113U	polymerase ribozyme fitness (log ratio)	-3.73
G63A U126G	polymerase ribozyme fitness (log ratio)	-2.3
C82U G127U	polymerase ribozyme fitness (log ratio)	-0.724
U54C C56A C64A C85G G117A	polymerase ribozyme fitness (log ratio)	-7.73
A111G C114G C123U	polymerase ribozyme fitness (log ratio)	-6.41
G57U C82G A95G A111U C123U	polymerase ribozyme fitness (log ratio)	-5.66
C72G C124A	polymerase ribozyme fitness (log ratio)	1.03
U33A A46U C97A	polymerase ribozyme fitness (log ratio)	-6.45
U14G G45A A121U	polymerase ribozyme fitness (log ratio)	0.629
C64G U112A	polymerase ribozyme fitness (log ratio)	-4.73
C8G A75G C88A C124U	polymerase ribozyme fitness (log ratio)	1.57
A5U G51A G113A C124A	polymerase ribozyme fitness (log ratio)	-3.34
G45U C49A	polymerase ribozyme fitness (log ratio)	-0.895
C70A U125A G128A	polymerase ribozyme fitness (log ratio)	-3.04
A37U U106C	polymerase ribozyme fitness (log ratio)	-0.686
A27U C56U	polymerase ribozyme fitness (log ratio)	-3.04
G42U A50G G57C G61U C80A C82A G120A	polymerase ribozyme fitness (log ratio)	-4.58
C22G U112A A118U	polymerase ribozyme fitness (log ratio)	-1.75
A43U C99A C101G G110A	polymerase ribozyme fitness (log ratio)	-7.09
G39A G42U C72A	polymerase ribozyme fitness (log ratio)	-1.57
G69A U78C A84C	polymerase ribozyme fitness (log ratio)	-3.57
C49U G135C	polymerase ribozyme fitness (log ratio)	-0.277
C4G C12G G61C C79A C82A C124U	polymerase ribozyme fitness (log ratio)	-3.71
A5C G63A G69U C101U	polymerase ribozyme fitness (log ratio)	-1.54

# credit: the RNAGym collection of RNA variant scans (doi:10.1073/pnas.2313332121)
